Hey, just so you know, these numbers are from the supplement of paper PMC10567573.

B1: TMEM120A (parent)
chain: YQSFVQFLQYYYQSGCLYRLRALG

Variants of: B1
Assay: protein stability index of a GFP-peptide fusion (GPS, HEK-293T) (PSI 1-6); higher = more stable;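 note: lentivirally expressed fusions sorted by FACS into six bins by GFP to DsRed ratio, PSI derived from sequencing read proportions per bin multiplied by bin number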
Conditions: c terminus: a fixed tail appended
If the reported protein stability index equals or exceeds 3, assign met. If not, assign not met.

Given the entry YQSFVQFLQYYYQSGCLYHLRALG , answer whether its protein stability index meets or surpasses 3. met

Given the entry YQSFVQFLQYYYQSGCLYRLRALN , answer whether its protein stability index meets or surpasses 3. not met

Given the entry YQSFVQFLQYYYQSGCTYRLRALG , answer whether its protein stability index meets or surpasses 3. not met

Given the entry YQSFVQFLQYYYQTGCLYRLRALG , answer whether its protein stability index meets or surpasses 3. met

Given the entry YFSFVQFLQYYYQSGCLYRLRALG , answer whether its protein stability index meets or surpasses 3. met
